Test Protocol: Microsomal stability
Type: in vitro ADME
Assay Conditions: mouse, liver microsomes
Measured Attribute: remaining at 1 h
Field note: include the unit after the figure.

*Q* Requested field: remaining at 1 h. Item: CCN(CC)CCCC(C)Nc1cc(/C=C/c2ccc([N+](=O)[O-])cc2)nc2ccc(OC)cc12 (stereo not shown)
*A* 47.8%

---

Give EC50 for every item shown.
Test system: P. falciparum Dd2 (chloroquine-resistant)
Test Protocol: SYBR green I-based parasite viability assay, Dd2 strain
Format: cell-based, Plasmodium falciparum
Assay Conditions: Plasmodium falciparum, DD2, 72 h, read-out: Dd2 EC50

CCN(CC)CCCC(C)Nc1ccnc2cc(Cl)ccc12 (stereo not shown) [Chloroquine, reference compound]; 172 nM
COC(=O)c1ccc(/C=C/c2cc(NCCCN3CCOCC3)c3cc(OC)ccc3n2)cc1; 471 nM
COc1ccc2nc(/C=C/c3ccc(C(F)(F)F)cc3)cc(NCCCN3CCOCC3)c2c1; 735 nM

Would you kindly look at the next entry?
*Q* What value of EC50 on P. falciparum Dd2 (chloroquine-resistant) does COc1ccc2nc(/C=C/c3ccc(F)cc3)cc(NCCCN(C)C)c2c1 have?
*A* 137 nM

---

Test system: P. falciparum HB3 (chloroquine-sensitive)
Test Protocol: Image-based merozoite egress and invasion assay
Format: cell-based, Plasmodium falciparum
Assay Conditions: exposed at 42 hpi (schizont stage) for 24 h; 10 μM per method
Measured Attribute: effect on merozoite egress and invasion

CC(=O)N[C@@H]1[C@@H](O)[C@H](O)[C@@H](CO)O[C@H]1O; blocks invasion
CCN(CC)CCCC(C)Nc1cc(/C=C/c2ccc([N+](=O)[O-])cc2)nc2ccc(OC)cc12 (stereo not shown); blocks invasion

---

Tested on: P. falciparum Dd2 (chloroquine-resistant)
Test Protocol: SYBR green I-based parasite viability assay, Dd2 strain
Assay type: cell-based, Plasmodium falciparum
Assay Conditions: Plasmodium falciparum, DD2, 72 h, read-out: Dd2 EC50
Give pEC50 for every item shown.
Numbers only, as −log10 of the molar value.

COc1ccc2nc(/C=C/c3ccc([N+](=O)[O-])cc3)cc(NCCCN3CCOCC3)c2c1; 6.91

Each of the following entries comes with a recorded value; kindly state pEC50 for each.
1. COc1ccc2nc(/C=C/c3ccc([N+](=O)[O-])cc3)cc(NCCCN(C)C)c2c1
2. COc1ccc2nc(/C=C/c3ccccc3)cc(NCCCN(C)C)c2c1
3. COc1ccc2nc(/C=C/c3ccc(F)cc3)cc(NCCCN3CCOCC3)c2c1

*A*
7.24
6.49
6.68

---

Tested on: P. falciparum Dd2 (chloroquine-resistant)
Test Protocol: SYBR green I-based parasite viability assay, Dd2 strain
Format: cell-based, Plasmodium falciparum
Assay Conditions: Plasmodium falciparum, DD2, 72 h, read-out: EC50 Dd2
Measured Attribute: EC50

*Q* Requested field: EC50. Item: CCN(CC)CCCC(C)Nc1cc(/C=C/c2ccc([N+](=O)[O-])cc2)nc2ccc(OC)cc12 (stereo not shown) [UCF 501, 4-Nitro styrylquinoline (NSQ)]
*A* 67 nM

---

Test system: HepG2 human hepatocyte cells
Test Protocol: MTS cytotoxicity assay
Type: cell-based
Assay Conditions: Homo sapiens, HepG2, 48 h, read-out: EC50 HepG2
Measured Attribute: pEC50
Answers are plain numbers, as −log10 of the molar value.

*Q* Requested field: pEC50. Item: CCN(CC)CCCC(C)Nc1cc(/C=C/c2ccc([N+](=O)[O-])cc2)nc2ccc(OC)cc12 (stereo not shown) [UCF 501, 4-Nitro styrylquinoline (NSQ)]
*A* 4.89

---

System: P. falciparum Dd2 (chloroquine-resistant)
Test Protocol: SYBR green I-based parasite viability assay, Dd2 strain
Type: cell-based, Plasmodium falciparum
Assay Conditions: Plasmodium falciparum, DD2, 72 h, read-out: Dd2 EC50
Give EC50 for every item shown.
One number for each entry, in nM.

Past entries and their recorded results:
COc1ccc2nc(/C=C/c3ccccc3)cc(NCCCN3CCOCC3)c2c1; 303
COc1ccc2nc(/C=C/c3ccc(C(F)(F)F)cc3)cc(NCCCN(C)C)c2c1; 726

Would you kindly look at the next entry?
*Q* Requested field: EC50. Item: COC(=O)c1ccc(/C=C/c2cc(NCCCN(C)C)c3cc(OC)ccc3n2)cc1
*A* 138

Data origin: paper PMC5350499
